SYSTEM_NAME: cloned human dopamine D3 receptors (Homo sapiens, UniProt P35462)
Construct: expressed in transfected cells; membrane homogenate
Sequence (P35462 whole entry): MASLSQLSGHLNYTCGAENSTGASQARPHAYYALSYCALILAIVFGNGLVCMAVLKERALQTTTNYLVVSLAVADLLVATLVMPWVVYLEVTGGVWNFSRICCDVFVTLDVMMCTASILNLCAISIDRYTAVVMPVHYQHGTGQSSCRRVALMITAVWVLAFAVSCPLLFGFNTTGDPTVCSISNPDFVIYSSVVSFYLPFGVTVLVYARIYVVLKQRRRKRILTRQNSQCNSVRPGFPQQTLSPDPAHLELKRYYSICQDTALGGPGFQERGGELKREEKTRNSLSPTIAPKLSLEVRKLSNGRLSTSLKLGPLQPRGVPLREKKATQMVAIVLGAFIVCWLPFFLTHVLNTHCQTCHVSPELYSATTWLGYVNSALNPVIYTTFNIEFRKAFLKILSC
METHOD_DESCRIPTION: [N-Methyl-3H]Spiroperidol binding to cloned human dopamine D3 receptors (Protocol 1)
MEASUREMENT_SETUP: the 15th table; read-out: D3 Ki
MEASURE_NAME: log10(Ki) (log10 of the value in nM)
Parameter value (number): base-10 log of Ki in nM.

Lab note: each compound below needs its log10(Ki) filled in.
1. O=C(NCCCCN1C2CCC1CC(c1noc3ccccc13)C2)c1ccc(-c2ccccc2)cc1 (centres unmarked)
2. O=C(NCCCCN1C2CCC1CC(c1noc3cc(F)ccc13)C2)c1cccc(F)c1F (centres unmarked)

output:
1.75
2.55

Lab note: each compound below needs its log10(Ki) filled in.
1. O=C(NCCCCN1C2CCC1CC(c1noc3ccccc13)C2)c1cc2ccccc2s1 (centres unmarked)
2. O=C(NCCCCN1C2CCC1CC(c1noc3ccccc13)C2)c1ccccc1 (centres unmarked)
3. CSc1ncccc1C(=O)NCCCCN1C2CCC1CC(c1noc3cc(F)ccc13)C2 (centres unmarked)
4. CCCc1ccc(C(=O)NCCCCN2C3CCC2CC(c2noc4cc(F)ccc24)C3)cc1 (centres unmarked)

output:
[1.82, 2.48, 2.84, 1.71]

Lab note: each compound below needs its log10(Ki) filled in.
1. CCCCCCc1ccc(C(=O)NCCCCN2C3CCC2CC(c2noc4ccccc24)C3)cc1 (centres unmarked)
2. O=C(NCCCCN1C2CCC1CC(c1noc3cc(F)ccc13)C2)c1ccc(-c2ccccc2)cc1 (centres unmarked)

output:
[1.81, 1.65]

###

SYSTEM_NAME: cloned human dopamine D3 receptors (Homo sapiens, UniProt P35462)
Construct: expressed in transfected cells; membrane homogenate
METHOD_DESCRIPTION: [N-Methyl-3H]Spiroperidol binding to cloned human dopamine D3 receptors (Protocol 1)
MEASUREMENT_SETUP: read-out: D3K1
MEASURE_NAME: pKi
Give bare numbers, as −log10 of the molar value.

// known answers, use as guide
1. COc1cccc(C(=O)NC/C=C/CN2CCN(c3csc4cc(C(F)(F)F)ccc34)CC2)c1 :: 7.23
2. O=C(NC/C=C/CN1CCN(c2csc3cc(C(F)(F)F)ccc23)CC1)c1cc(F)cc(F)c1 :: 7.01
3. CC(=O)Nc1ccc(C(=O)N[C@@H](CO)CCCN2CCN(c3csc4cc(C(F)(F)F)ccc34)CC2)cc1 :: 6.69

input: Name the reported pKi value associated with the compound "O=C(NC/C=C\CN1CCN(c2csc3cc(C(F)(F)F)ccc23)CC1)c1cccnc1"
output: 7.39

###

SYSTEM_NAME: Alpha-1 adrenergic receptors from rat brain cortex
METHOD_DESCRIPTION: [3H]Prazosin binding to alpha-1 adrenergic receptors from rat brain cortex (Protocol 4)
MEASUREMENT_SETUP: rat α-1; read-out: rat alpha 1 Ki
MEASURE_NAME: Ki (nM)
Give bare numbers, in nM.

// known answers, use as guide
1. O=C(NCCCCN1CCN(c2csc3cc(F)ccc23)CC1)c1ccc(C(F)(F)F)cc1 [compound 813374] :: 32.4
2. COc1ccccc1C(=O)NCCCCN1CCN(c2csc3cc(F)ccc23)CC1 [compound 813368] :: 4.1
3. O=C(NCCCCN1CCN(c2csc3cc(F)ccc23)CC1)c1sc2ccccc2c1Cl [compound 813377] :: 15.4

For the next question, use this compound.
input: Name the reported Ki value associated with the compound O=C(NCCCCN1CCN(c2csc3cc(F)ccc23)CC1)c1ccc(Br)cc1 [compound 813381]
output: 32.3

Data provenance is patent US7550469B2.
